Tested On: full-length, proteolytically inactive Taspase 1 (Homo sapiens, UniProt Q9H6P5, D233A/T234A)
Sequence (Q9H6P5 1-420 D233A/T234A): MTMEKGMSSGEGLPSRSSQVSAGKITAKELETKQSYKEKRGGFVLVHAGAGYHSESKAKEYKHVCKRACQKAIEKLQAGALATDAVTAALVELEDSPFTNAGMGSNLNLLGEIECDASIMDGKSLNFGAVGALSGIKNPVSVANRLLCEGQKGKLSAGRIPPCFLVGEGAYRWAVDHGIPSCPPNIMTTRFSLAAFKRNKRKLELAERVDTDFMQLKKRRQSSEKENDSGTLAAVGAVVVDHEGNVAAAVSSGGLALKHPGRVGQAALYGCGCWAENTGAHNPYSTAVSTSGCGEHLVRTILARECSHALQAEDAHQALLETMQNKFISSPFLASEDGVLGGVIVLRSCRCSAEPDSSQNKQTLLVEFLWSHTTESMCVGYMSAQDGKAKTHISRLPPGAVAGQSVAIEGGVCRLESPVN
Procedure Summary: Surface plasmon resonance on immobilized full-length, inactive Taspase 1
Assay type: binding
Test Context: Z isomer; ligand conc. 0.06 - 25 µM; Table S4; read-out: KD TW (SPR, full-length protein)
Measured Kd values are reported for all entries that follow.
Field: numeric (nM). Do not append units.

Some solved entries appear below for comparison.
{"columns": ["Sample Smiles", "Kd, nM"],
 "data": [
  ["Cc1nn(-c2ccc(-c3cn(CCOP(=O)(O)Oc4c5c(c(OP(=O)(O)O)c6c4C4CC6c6cc7c(cc64)C4CC7c6ccccc64)C4CC5c5cc6c(cc54)C4CC6c5ccccc54)nn3)cc2)c(C)c1N=Nc1ccc(-c2ccc(-c3cn(CCOP(=O)(O)Oc4c5c(c(OP(=O)(O)O)c6c4C4CC6c6cc7c(cc64)C4CC7c6ccccc64)C4CC5c5cc6c(cc54)C4CC6c5ccccc54)nn3)cc2)cc1", 2700],
  ["Cc1nn(Cc2cn(CCOP(=O)(O)Oc3c4c(c(OP(=O)(O)O)c5c3C3CC5c5cc6c(cc53)C3CC6c5ccccc53)C3CC4c4cc5c(cc43)C3CC5c4ccccc43)nn2)c(C)c1N=Nc1ccc(-c2cn(CCOP(=O)(O)Oc3c4c(c(OP(=O)(O)O)c5c3C3CC5c5cc6c(cc53)C3CC6c5ccccc53)C3CC4c4cc5c(cc43)C3CC5c4ccccc43)nn2)cc1", 4300]
]}

Form field Kd, entry `Cc1nn(-c2ccc(-n3cc(CCOP(=O)(O)Oc4c5c(c(OP(=O)(O)O)c6c4C4CC6c6cc7c(cc64)C4CC7c6ccccc64)C4CC5c5cc6c(cc54)C4CC6c5ccccc54)nn3)cc2)c(C)c1N=Nc1ccc(-n2cc(CCOP(=O)(O)Oc3c4c(c(OP(=O)(O)O)c5c3C3CC5c5cc6c(cc53)C3CC6c5ccccc53)C3CC4c4cc5c(cc43)C3CC5c4ccccc43)nn2)cc1` : 2900

Form field Kd, entry `Cc1nn(-c2ccc(C#Cc3ccc(-c4cn(CCOP(=O)(O)Oc5c6c(c(OP(=O)(O)O)c7c5C5CC7c7cc8c(cc75)C5CC8c7ccccc75)C5CC6c6cc7c(cc65)C5CC7c6ccccc65)nn4)cc3)cc2)c(C)c1N=Nc1ccc(C#Cc2ccc(-c3cn(CCOP(=O)(O)Oc4c5c(c(OP(=O)(O)O)c6c4C4CC6c6cc7c(cc64)C4CC7c6ccccc64)C4CC5c5cc6c(cc54)C4CC6c5ccccc54)nn3)cc2)cc1` : 2000

###

Tested On: Cy5-labeled Taspase 1 loop (Homo sapiens, UniProt Q9H6P5)
Construct: Cy5-labeled NLS-bearing loop peptide (aa S181-D233); purchased GeneCust; host or cells: synthetic peptide
Sequence (Q9H6P5 181-233): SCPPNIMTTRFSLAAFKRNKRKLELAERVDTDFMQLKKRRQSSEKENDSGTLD
Procedure Summary: Fluorescence titration of Cy5-labeled Taspase 1 loop
Format: binding
Test Context: E isomer; 1:1 binding model; n = 3; read-out: KD TW (fluorescence titration, loop)
Protocol: Fluorescence titration was conducted with a Taspase 1 loop with an N-terminal […] synthesized by GeneCust (Sequence: Cy5-[…]; NLS in bold) as described.[9,10] The fluorescence anisotropy assay was modified based on previously established protocols.[51] Measurements were conducted using an FP-8300 JASCO fluorescence spectrometer (JASCO GmbH). […]
Endpoint Name: pKd
// field semantics: pKd = negative decimal log of concentration (mol/L)

Some solved entries appear below for comparison.
{"columns": ["Sample Smiles", "pKd"],
 "data": [
  ["Cc1nn(-c2ccc(C#Cc3ccc(-c4cn(CCOP(=O)(O)Oc5c6c(c(OP(=O)(O)O)c7c5C5CC7c7cc8c(cc75)C5CC8c7ccccc75)C5CC6c6cc7c(cc65)C5CC7c6ccccc65)nn4)cc3)cc2)c(C)c1N=Nc1ccc(C#Cc2ccc(-c3cn(CCOP(=O)(O)Oc4c5c(c(OP(=O)(O)O)c6c4C4CC6c6cc7c(cc64)C4CC7c6ccccc64)C4CC5c5cc6c(cc54)C4CC6c5ccccc54)nn3)cc2)cc1", 6.10],
  ["Cc1nn(Cc2cn(CCOP(=O)(O)Oc3c4c(c(OP(=O)(O)O)c5c3C3CC5c5cc6c(cc53)C3CC6c5ccccc53)C3CC4c4cc5c(cc43)C3CC5c4ccccc43)nn2)c(C)c1N=Nc1ccc(-c2cn(CCOP(=O)(O)Oc3c4c(c(OP(=O)(O)O)c5c3C3CC5c5cc6c(cc53)C3CC6c5ccccc53)C3CC4c4cc5c(cc43)C3CC5c4ccccc43)nn2)cc1", 6.52],
  ["Cc1nn(-c2ccc(-n3cc(CCOP(=O)(O)Oc4c5c(c(OP(=O)(O)O)c6c4C4CC6c6cc7c(cc64)C4CC7c6ccccc64)C4CC5c5cc6c(cc54)C4CC6c5ccccc54)nn3)cc2)c(C)c1N=Nc1ccc(-n2cc(CCOP(=O)(O)Oc3c4c(c(OP(=O)(O)O)c5c3C3CC5c5cc6c(cc53)C3CC6c5ccccc53)C3CC4c4cc5c(cc43)C3CC5c4ccccc43)nn2)cc1", 6.70]
]}

Now take the following compound into account.
Form field pKd, entry `Cc1nn(-c2ccc(-c3cn(CCOP(=O)(O)Oc4c5c(c(OP(=O)(O)O)c6c4C4CC6c6cc7c(cc64)C4CC7c6ccccc64)C4CC5c5cc6c(cc54)C4CC6c5ccccc54)nn3)cc2)c(C)c1N=Nc1ccc(-c2ccc(-c3cn(CCOP(=O)(O)Oc4c5c(c(OP(=O)(O)O)c6c4C4CC6c6cc7c(cc64)C4CC7c6ccccc64)C4CC5c5cc6c(cc54)C4CC6c5ccccc54)nn3)cc2)cc1` : 6.40

###

Procedure Summary: Photoisomerization: photostationary states by 1H NMR, switching cycles by UV-vis
Type: physicochemical
Test Context: UV 365 nm
Measured PSS E→Z, photostationary state values are reported for all entries that follow.
Field: numeric (%). Do not append units.

Some solved entries appear below for comparison.
{"columns": ["Compound", "Observed"],
 "data": [
  ["O=P(O)(O)Oc1c2c(c(OP(=O)(O)OCCn3cc(COCc4ccc(N=Nc5ccc(COCc6cn(CCOP(=O)(O)Oc7c8c(c(OP(=O)(O)O)c9c7C7CC9c9cc%10c(cc97)C7CC%10c9ccccc97)C7CC8c8cc9c(cc87)C7CC9c8ccccc87)nn6)cc5)cc4)nn3)c3c1C1CC3c3cc4c(cc31)C1CC4c3ccccc31)C1CC2c2cc3c(cc21)C1CC3c2ccccc21 [TWAB2]", 59],
  ["O=P(O)(O)Oc1c2c(c(OP(=O)(O)OCCn3cc(-c4ccc(N=Nc5ccc(-c6cn(CCOP(=O)(O)Oc7c8c(c(OP(=O)(O)O)c9c7C7CC9c9cc%10c(cc97)C7CC%10c9ccccc97)C7CC8c8cc9c(cc87)C7CC9c8ccccc87)nn6)cc5)cc4)nn3)c3c1C1CC3c3cc4c(cc31)C1CC4c3ccccc31)C1CC2c2cc3c(cc21)C1CC3c2ccccc21 [TWAB1]", 63]
]}

Form field PSS E→Z, photostationary state, entry Cc1nn(-c2ccc(-c3cn(CCOP(=O)(O)Oc4c5c(c(OP(=O)(O)O)c6c4C4CC6c6cc7c(cc64)C4CC7c6ccccc64)C4CC5c5cc6c(cc54)C4CC6c5ccccc54)nn3)cc2)c(C)c1N=Nc1ccc(-c2ccc(-c3cn(CCOP(=O)(O)Oc4c5c(c(OP(=O)(O)O)c6c4C4CC6c6cc7c(cc64)C4CC7c6ccccc64)C4CC5c5cc6c(cc54)C4CC6c5ccccc54)nn3)cc2)cc1 [TWAAP3] : 84

Form field PSS E→Z, photostationary state, entry Cc1nn(-c2ccc(-n3cc(CCOP(=O)(O)Oc4c5c(c(OP(=O)(O)O)c6c4C4CC6c6cc7c(cc64)C4CC7c6ccccc64)C4CC5c5cc6c(cc54)C4CC6c5ccccc54)nn3)cc2)c(C)c1N=Nc1ccc(-n2cc(CCOP(=O)(O)Oc3c4c(c(OP(=O)(O)O)c5c3C3CC5c5cc6c(cc53)C3CC6c5ccccc53)C3CC4c4cc5c(cc43)C3CC5c4ccccc43)nn2)cc1 [TWAAP0] : 87
